test system: SN12C renal; assay: NCI-60 one-dose screen, 48 h (100 = growth as untreated, 0 = no growth, -100 = all killed); settings: 10 µM
The panel holds about 83,000 compounds, 20% with a hit somewhere; the sample as a whole holds those more often.
Recorded growth determines the label; the label ranges are range A = under -60%, range B = from -60% up to 40%, range C = 40% and over

Here are 5 compounds together with their reported answers.
{"compound": "CN1CCN(Cc2ccc(NC(=O)c3cncc(C#Cc4cnc5ccc(N[C@@H]6CCOC6)nn45)c3)cc2C(F)(F)F)CC1", "label.class": "range A"}
{"compound": "CN(C)c1cccc2c(S(=O)(=O)Nc3cccc(-c4csc(NC(=O)CCCCCN5CCN(c6cc7c(cc6F)C(=O)N(C6CCC(=O)NC6=O)C7=O)CC5)n4)c3)cccc12 (centres undefined)", "label.class": "range C"}
{"compound": "COc1ccc(CN2[C@@H](C(=O)NCc3ccc(C(=O)NO)cc3)Cc3c([nH]c4ccccc34)[C@@H]2C2CC2)cc1", "label.class": "range B"}
{"compound": "C/C(=N\\N=C\\c1ccc(Cl)c([N+](=O)[O-])c1)c1ccc2c(c1)Nc1ccccc1S2", "label.class": "range B"}
{"compound": "O=C(c1ccc(-n2c(=O)[nH]c3ccccc3c2=O)cc1)N1CCOCC1", "label.class": "range C"}

Input line: Hey, which category is COc1ccccc1[C@H]1C(C(=O)c2ccc(Cl)cc2)C2(N[C@@H]1c1ccccc1)C(=O)Nc1ccccc12 (some centres undefined) in, do you know?
Output line: range A

Input line: Categorize the following entry: `COc1ccc2cc([C@H](C)C(=O)NCc3ccccc3)ccc2c1`
Output line: range B

* * *

Field: growth. Provide a value for each of the molecules that follow.
tested on: EKVX NSCLC; assay: NCI-60 one-dose screen, 48 h (100 = growth as untreated, 0 = no growth, -100 = all killed); details: 10 µM
The panel holds about 83,000 compounds, 20% with a hit somewhere; the sample as a whole holds those more often. Activity calls are given as the source filed them. The calls were made as follows: active = growth percent below 10; inactive = the rest.

// for each molecule in input: emit growth
1. CNC(=O)c1cccc(N2CCc3c2ccc(NC(=O)Nc2ccc(N4CCN(C)CC4)c(C(F)(F)F)c2)c3F)c1
2. O=c1c2ccccc2nc(COc2ccccc2)n1/N=C/c1ccc(F)cc1
3. CC1=N/C(=C\c2ccc(N(C)C)cc2)C(=O)N1CCc1ccc(S(N)(=O)=O)cc1

Output line:
["-87% (active)", "92.1% (inactive)", "95.2% (inactive)"]

Give measured growth for every item shown.
1. CN1CCc2c(sc3ncnc(N/N=C/c4cn(-c5ccccc5)nc4-c4ccc(Br)cc4)c23)C1
2. COc1cc2c3c(n(CCCNC(C)C)c(=O)c2cc1OC)-c1nc2c(cc1C3=O)OCO2

Output line:
20.5% (inactive)
87.6% (inactive)

* * *

test system: CCRF-CEM leukemia; assay: NCI-60 one-dose screen, 48 h (100 = growth as untreated, 0 = no growth, -100 = all killed); details: 10 µM
About 83,000 compounds went through this panel and 20% of them were active in at least one assay; those are over-represented in the sample as a whole.
Would you kindly list growth for each of these molecules?
Give bare numbers, in %.

Provide growth values for the following items, in order.
1. CN(C)c1ccc(/C=C/c2nc3ccccc3c(=O)n2CC(=O)Nc2ccc(Cl)cc2)cc1
2. Cc1ccn2c(C(=O)c3ccc(Br)cc3)cc(-c3cc(-c4ccc(N(C)C)cc4)c(C#N)c(N)n3)c2c1
3. O=C1CCC(N2Cc3c(NCc4ccc(-c5ccccc5)cc4)cccc3C2=O)C(=O)N1 (centres undefined)
4. CN1CCN(c2ccc(Nc3nc(NCCNC(=O)c4ccc(C(F)(F)F)cc4)c4sccc4n3)cc2)CC1
5. CC(=O)NNc1ccc2nnc(-c3ccc(Br)cc3)n2n1

Output line:
88.6
94.3
19.9
-31.1
40.1

Hey, can you go through the list below and give me growth for every item?
1. Cn1c(O)c(N=Nc2nc(-c3cc4ccccc4oc3=O)cs2)c2cc(Br)ccc21
2. O=C(c1ccc(Cl)cc1)C1[C@H](c2ccccc2Br)[C@@H](c2ccccc2)NC12C(=O)Nc1ccc(Br)cc12 (some centres undefined)
3. O=C(c1ccc(O)cc1)C1[C@H](c2ccccc2Br)[C@@H](c2ccccc2)NC12C(=O)Nc1ccc(Cl)cc12 (some centres undefined)
4. COc1ccc(C(=O)/C=C/c2cc(F)cc(C(F)(F)F)c2)cc1S(N)(=O)=O
5. CC1CC(c2ccc(N(C)C)cc2)=NN1c1nc(O)c(C2=c3cc(Br)ccc3=NC2=O)s1 (centres undefined)
6. O=C(N/N=C/c1ccc(B(O)O)o1)c1[nH]c2ccc(Br)cc2c1-c1ccccc1

Output line:
1: 97.7; 2: 5.86; 3: 4.97; 4: 4.86; 5: 29.8; 6: 3.97

Give growth for each of the items listed below.
1. N#Cc1ccc(-c2nn(-c3ccc(C(=O)O)cc3)cc2CNc2cccc(Br)c2)cc1
2. Nc1nc(-c2ccccc2)cc(-c2cc3ccccc3nc2Cl)n1
3. O=C(CSc1nnc(-c2c[nH]c3ccccc23)n1-c1ccccc1)c1ccc(Cl)cc1
4. CN(C(=O)c1ccc(C(C)(C)C)cc1)c1sc2c(c1C#N)CCC(=O)C2

Output line:
[23.7, 1.2, 92.7, 8.93]

# map each molecule to its growth
1. O=C(Nc1ccc(OCC(=O)c2ccccc2)cc1)Nc1ccc(Cl)c(C(F)(F)F)c1
2. COc1ccc(NC(=O)Nc2ccc(OCC(=O)N=Nc3c(O)[nH]c4ccc([N+](=O)[O-])cc34)cc2)cc1
3. COc1ccc(-c2cc(C(=O)N=Nc3c(O)[nH]c4ccc(F)cc34)c3ccccc3n2)cc1
4. Cc1cc(=O)oc2cc(OCCCCOc3ccc(/C=C/C(=O)Nc4cccc(Cl)c4)cc3)ccc12

Output line:
[9.86, 93.7, 44.2, 83.4]

* * *

test system: UACC-62 melanoma; assay: NCI-60 one-dose screen, 48 h (100 = growth as untreated, 0 = no growth, -100 = all killed); details: 10 µM
This is part of a sample that, as a whole, favours compounds with a hit. Of some 83,000 tested, about 20% had one in any assay.
observable: growth (%)
Answers are plain numbers, in %.

Example cases with answers are listed next.
{"compound": "COc1ccccc1[C@H]1C(C(=O)c2ccc(Cl)cc2)C2(N[C@@H]1c1ccccc1)C(=O)Nc1ccccc12 (some centres undefined)", "observable": "growth", "readout.number": -74.9}
{"compound": "CN(C)c1ccc(/C=C/c2nc3ccccc3c(=O)n2CC(=O)Nc2ccccc2)cc1", "observable": "growth", "readout.number": 43.7}
{"compound": "O=C1NC(=NC23CC4CC(CC(C4)C2)C3)N/C1=C\\c1ccc2ncoc2c1", "observable": "growth", "readout.number": -71.4}
{"compound": "N#Cc1c(-c2ccc(F)cc2)nc(SCc2ccc([N+](=O)[O-])cc2)nc1N1CCOCC1", "observable": "growth", "readout.number": 62.7}
{"compound": "N#Cc1c(Cl)nc(SCc2ccc(F)cc2)nc1-c1ccc(F)cc1", "observable": "growth", "readout.number": 86}

For each of the compounds below, state growth.
1. COc1cc2oc(-c3cccc(C(=O)Nc4ccc(Cl)cc4)c3)cc(=O)c2c(OCCNC(=O)CNC(=O)OC(C)(C)C)c1OC
2. C#CCNC(=O)[C@]12CCC(C)(C)C[C@H]1C1=CC[C@@H]3[C@@](C)(CCC#N)[C@H](C(=C)C)CC[C@@]3(C)[C@]1(C)CC2
3. COC[C@@H](CC(C)C)N=C1NC(=O)/C(=C/c2ccc3ncsc3c2)N1

Output line:
1: 81; 2: 52.1; 3: 1.43

Lab note: measured growth of NC1=NC(c2ccccc2Cl)N=C(Nc2nn[nH]n2)N1 (centres undefined) was 94.1

* * *

Answer each item with its documented growth.
system: NCI-H460 lung; assay: NCI-60 one-dose screen, 48 h (100 = growth as untreated, 0 = no growth, -100 = all killed); settings: 10 µM
The panel holds about 83,000 compounds, 20% with a hit somewhere; the sample as a whole holds those more often.
Numbers only, in %.

{"molecule": "CCC(C)S(=O)(=O)c1oc(-c2ccc(C)cc2)nc1S(=O)(=O)c1ccccc1 (centres undefined)", "growth / %": -13.9}
{"molecule": "CC(=O)NS(=O)(=O)c1ccc(NC(=O)CSC2=NC(c3ccccc3)C(C(C)=O)=C(C)N2)cc1 (centres undefined)", "growth / %": 121}
{"molecule": "Cc1noc2c(Cc3ccccc3)nn(CC(=O)N/N=C/c3ccc(F)cc3)c(=O)c12", "growth / %": 28.9}
{"molecule": "CN1CCN(c2ccc(C(=O)/C=C/c3ccc(OC(F)F)cc3)cc2)CC1", "growth / %": 49.2}
{"molecule": "CN1CCN(c2ccc(Nc3nc(NCCCNC(=O)c4ccccc4)c4sccc4n3)cc2)CC1", "growth / %": 67.6}
{"molecule": "O=C(c1ccc(Cl)cc1)C1[C@H](c2ccc(Br)cc2)[C@@H](c2ccccc2)NC12C(=O)Nc1ccccc12 (some centres undefined)", "growth / %": -33.8}
{"molecule": "CCOC(=O)C1=C(N)N(c2ccc(C)cc2)C2=C(C(=O)CC(C)(C)C2)C1c1ccccc1OC (centres undefined)", "growth / %": 111}
{"molecule": "O=C1Nc2ccc(Cl)cc2/C1=C/c1ccc(OCc2ccc(Br)cc2F)cc1", "growth / %": 7.07}

Fill in growth for each of the 8 molecules listed.
1. COc1cc(/C=C/C(=O)c2ccc(NC(=O)CN3C(=O)NC(C)(c4ccccc4)C3=O)cc2)cc(OC)c1OC (centres undefined)
2. COc1cc2c(c(OC)c1OC)C(=O)CC(c1cccc(NC(=O)c3cccc(N)c3)c1)O2 (centres undefined)
3. S=c1nc(-c2ccccc2)cc(-c2cc3ccccc3nc2Cl)[nH]1
4. C=C1CCC2C3(C)COC(c4c(F)cccc4F)OC3CCC2(C)C1CC(O)C1=CCOC1=O (centres undefined)
5. COC[C@@H](CC(C)C)N=C1NC(=O)/C(=C/c2ccc3ncoc3c2)N1
6. CN1CCN(c2ccc(Nc3nc(N4CCN(S(=O)(=O)c5ccc(Cl)cc5)CC4)c4sccc4n3)cc2)CC1
7. Cc1ccc(-c2nc(Nc3ccc(S(N)(=O)=O)cc3)c3ccccc3n2)cc1
8. N#Cc1ccc(-c2nn(-c3ccc(C(=O)O)cc3)cc2CNc2ccc(Cl)cc2)cc1

Output line:
[2.48, 79.2, 90.4, 89.2, 6.38, -70.6, 22.4, 93.1]

# batch: return growth for each of the 3 molecules below
1. CN(CCO)c1oc(-c2ccccc2)nc1[P+](c1ccccc1)(c1ccccc1)c1ccccc1
2. CN1CCc2c(sc3ncnc(N/N=C/c4ccc5ccccc5c4)c23)C1
3. CCCCCCCCCCCCCCCCCCCC(=O)NCCc1c[nH]c2ccc(OC(=O)CCCC(=O)OCCOOCCOOCCOOCCOOCCOOCCOOCCOOCCOOCCOOCCOOCCOOCCOC)cc12

Output line:
1: 6.61; 2: 0.259; 3: 50.4
